Where do the numbers come from? From PubChem BioAssay (Tox21).

- test-details: qHTS assay to identify small molecule antagonists of the androgen receptor (AR) signaling pathway using the MDA cell line in the presence of 0.5 nM R1881 - cell viability counter screen (AID 1259242); further: nearly all actives have a fitted effect of over 45% in size
- condition-label: MDA-kb2 viability, CellTiter-Fluor protease fluorescence, 16 h; series mostly up to 92.4 µM
- Excerpt: U.S. Tox21 Program National Center for Advancing Translational Sciences [NCATS] NIH Chemical Genomics Center [NCGC] U.S. Environmental Protection Agency [EPA] National Institutes of Environmental Health Sciences [NIEHS] National Toxicology Program [NTP] U.S. Food and Drug Administration [FDA] Tox21 Assay Overview: Androgen receptor (AR) is an important member of the nuclear receptor family. Its signaling plays a critical role in AR-dependent prostate cancer and other androgen related diseases. […]
Inconclusive results are not listed. Calls of active or inactive are those of the source. The call rests on the fitted dose curve; in most records, active means well fitted cell-killing curve with a large enough effect in the repeat runs; inconclusive means weak or mixed curves, or effect the other way; inactive means flat fitted curve, though single readings scatter.
Just give me one of these, please: active, inactive

[[record]]
compound = "O=[N+]([O-])c1cccc(C(F)(F)F)c1"
class_assignment = "inactive"


// return assay outcome for [Cu+] inactive

// next record [Cl][Pt-2]([Cl])([Cl])[Cl] inactive

// next record COc1c(C)c2c(c(O)c1C/C=C(\C)CCC(=O)OCCN1CCOCC1)C(=O)OC2 inactive

// next record Nc1nc(N)nc(-c2cc(Cl)ccc2Cl)n1 inactive

// next record Cc1ccc(C(C)C)cc2c(C)ccc1-2 inactive

// next record CCCCC(CC)COC(=O)CCCCC(=O)OCc1ccccc1 (stereo unspecified) inactive

// next record CCOC(=O)NNc1ccc(N(CC)CC(C)O)nn1 (stereo unspecified) inactive

// next record C=Cc1cccc(C)c1 inactive

// next record O=S(=O)(O)c1ccc(N=Nc2c(O)ccc3ccccc23)cc1 active

// next record Cl[Si](Cl)(c1ccccc1)c1ccccc1 inactive

// next record O=C(c1ccc(O)c(O)c1)c1ccc(O)cc1O inactive

// next record C=C(CC)C(=O)c1ccc(OCC(=O)O)c(Cl)c1Cl inactive

// next record OC[C@H]1O[C@H](O[C@H]2O[C@H](CO)[C@@H](O)[C@H](O)[C@H]2O)[C@H](O)[C@@H](O)[C@@H]1O inactive

// next record CN1CCN2c3ccccc3Cc3ccccc3C2C1 (stereo unspecified) inactive

// next record COc1ccc(NC(=O)CC(C)=O)cc1 inactive

// next record O=C(O)CCN(C1(C(=O)NO)CCCC1)S(=O)(=O)c1ccc(Oc2ccc(F)cc2)cc1 inactive

// next record Cc1cc(C(C)(C)C)cc(C)c1CC1=NCCN1 inactive

// next record O=C(O)c1cc(=O)c2ccccc2o1 inactive

// next record CCC(COC(=O)CCS)(COC(=O)CCS)COC(=O)CCS inactive

// next record c1cnccn1 inactive
